Tested on: rice
Assay: Test B flood test rice
Assay type: in vivo, Oryza sativa
Conditions: Rate 125 g/ha; Pre-emergence; flood test species; scale 0 to 10 where 0 is no effect and 10 is complete control
Outcome measure: Rice plant response rating

Entry CC(C)N(C(=O)n1oc(=O)n(C[Si](C)(C)C)c1=O)c1ccc(F)cc1 — recorded Rice plant response rating = 0

Entry COC(=O)Cn1c(=O)on(C(=O)N(c2ccc(F)cc2)C(C)C)c1=O — recorded Rice plant response rating = 0

Entry CCN(C(=O)n1oc(=O)n(Cc2ccco2)c1=O)C1CCCCC1 — recorded Rice plant response rating = 0

Entry CCN(Cc1ccccc1)C(=O)n1oc(=O)n(-c2c(C)cccc2C)c1=O — recorded Rice plant response rating = 0

Entry CCOCn1c(=O)on(C(=O)N(c2ccc(F)cc2)C(C)C)c1=O — recorded Rice plant response rating = 0

Entry COCn1c(=O)on(C(=O)N(c2ccc(F)cc2)C(C)C)c1=O — recorded Rice plant response rating = 0

Entry CC(C)N(C(=O)n1oc(=O)n(C2CCCC2)c1=O)c1ccccc1 — recorded Rice plant response rating = 0

Entry CC(=O)OCCCCn1c(=O)on(C(=O)N(c2ccc(F)cc2)C(C)C)c1=O — recorded Rice plant response rating = 0

Entry CCc1ccc(N(C(=O)n2oc(=O)n(-c3ccccc3C)c2=O)C(C)C)cc1 — recorded Rice plant response rating = 0

Entry CC(C)N(C(=O)n1oc(=O)n(CC=Cc2ccccc2)c1=O)c1ccc(F)cc1 — recorded Rice plant response rating = 0

Entry CCOC(=O)C(C)N(C(=O)n1oc(=O)n(CC)c1=O)c1ccc(F)cc1 (centres unmarked) — recorded Rice plant response rating = 0
